- System: 171881-019-R-J1-PDC tumor spheroids, viability
- Test: Anticancer human tumor 171881-019-R-J1-PDC patient-derived invasive breast carcinoma cell line growth inhibition [GQUAD]
- Reported Conditions: second compound 0.316 µM; first compound 1 µM; active compounds read low; spheroids with HUVEC and MSC
Please provide measured viability, T/C for the entries that follow.
Give bare numbers, in %.

Example entries begin here.
- Molecule: "C=CC(=O)N1CCN(c2nc(=O)n(-c3c(C)ccnc3C(C)C)c3nc(-c4c(O)cccc4F)c(F)cc23)C(C)C1 (stereo not given) + Cc1[nH]c2ccc(F)cc2c1-c1nc2c3cccnc3c3ncccc3c2[nH]1"
  viability, T/C / %: 104
- Molecule: "O=C(NO)c1cnc(N2CCN(S(=O)(=O)c3ccc4ccccc4c3)CC2)nc1 + Cc1cnc(CNC(=O)c2c(=O)c3ccc(N4CCCN(C)CC4)nc3n3c2sc2ccccc23)cn1"
  viability, T/C / %: 1.48
- Molecule: "COc1cccc2c1C(=O)c1c(O)c3c(c(O)c1C2=O)CC(O)(C(=O)CO)CC3OC1CC(N)C(O)C(C)O1 (stereo not given) + Cc1[nH]c2ccc(F)cc2c1-c1nc2c3cccnc3c3ncccc3c2[nH]1"
  viability, T/C / %: 13.9
- Molecule: "C=CCn1c(=O)c2cnc(Nc3ccc(N4CCN(C)CC4)cc3)nc2n1-c1cccc(C(C)(C)O)n1 + Cc1cnc(CNC(=O)c2c(=O)c3ccc(N4CCCN(C)CC4)nc3n3c2sc2ccccc23)cn1"
  viability, T/C / %: 34.3

Let us move to another entry and its viability, T/C.
(Q) # input molecule: CC(C)(O)C1CCC(Nc2ccc3ncc(-c4cccc(C(F)(F)F)c4)n3n2)CC1 (stereo not given) + Cc1cnc(CNC(=O)c2c(=O)c3ccc(N4CCCN(C)CC4)nc3n3c2sc2ccccc23)cn1 ; wanted: its viability, T/C
(A) 63.1

====

- Tested on: 171881-019-R-J1-PDC tumor spheroids, viability
- Test: Anticancer human tumor 171881-019-R-J1-PDC cell line growth inhibition [GQUAD];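 note: spheroids exposed to compounds for 7 days; 100% = DMSO vehicle control viability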
- Reported Conditions: second compound 0.316 µM; first compound 0.1 µM; active compounds read low; spheroids with HUVEC and MSC
Parameter: viability, T/C (%)
Answers are plain numbers, in %.

- Compound: "C=CCn1c(=O)c2cnc(Nc3ccc(N4CCN(C)CC4)cc3)nc2n1-c1cccc(C(C)(C)O)n1 + Cc1cnc(CNC(=O)c2c(=O)c3ccc(N4CCCN(C)CC4)nc3n3c2sc2ccccc23)cn1"
  viability, T/C, %: 68.6
- Compound: "O=C(c1cc(Cc2n[nH]c(=O)c3ccccc23)ccc1F)N1CCN(C(=O)C2CC2)CC1 + Cc1[nH]c2ccc(F)cc2c1-c1nc2c3cccnc3c3ncccc3c2[nH]1"
  viability, T/C, %: 107

For each of the compounds below, note its viability, T/C.
1. CCCS(=O)(=O)Nc1ccc(F)c(C(=O)c2c[nH]c3ncc(-c4ccc(Cl)cc4)cc23)c1F + Cc1[nH]c2ccc(F)cc2c1-c1nc2c3cccnc3c3ncccc3c2[nH]1
2. COc1cccc2c1C(=O)c1c(O)c3c(c(O)c1C2=O)CC(O)(C(=O)CO)CC3OC1CC(N)C(O)C(C)O1 (stereo not given) + Cc1cnc(CNC(=O)c2c(=O)c3ccc(N4CCCN(C)CC4)nc3n3c2sc2ccccc23)cn1
3. C=CC(=O)N1CCN(c2nc(=O)n(-c3c(C)ccnc3C(C)C)c3nc(-c4c(O)cccc4F)c(F)cc23)C(C)C1 (stereo not given) + CN(C)c1ccc(Nc2c3ccc(NC(=O)CCN4CCCC4)cc3nc3cc(NC(=O)CCN4CCCC4)ccc23)cc1
4. CC(=O)O[C@H]1C(=O)[C@@]2(C)[C@H]([C@H](OC(=O)c3ccccc3)[C@]3(O)C[C@H](OC(=O)[C@H](O)[C@@H](NC(=O)c4ccccc4)c4ccccc4)C(C)=C1C3(C)C)[C@]1(OC(C)=O)CO[C@@H]1C[C@@H]2O + Cc1[nH]c2ccc(F)cc2c1-c1nc2c3cccnc3c3ncccc3c2[nH]1
5. COc1ccc([C@@H](O)c2cc(-c3ncnc4cc(N5CCOCC5)ccc34)c(F)cc2Cl)nn1 + Cc1[nH]c2ccc(F)cc2c1-c1nc2c3cccnc3c3ncccc3c2[nH]1
6. C#Cc1c(F)ccc2cc(O)cc(-c3ncc4c(N5CC6CCC(C5)N6)nc(OCC56CCCN5CC(F)C6)nc4c3F)c12 (stereo not given) + CN(C)c1ccc(Nc2c3ccc(NC(=O)CCN4CCCC4)cc3nc3cc(NC(=O)CCN4CCCC4)ccc23)cc1

(A)
1. 77.2
2. 59.9
3. 75.8
4. 35.5
5. 90.2
6. 33.4

For each of the compounds below, note its viability, T/C.
1. COc1cc(C2c3cc4c(cc3C(OC3OC5COC(C)OC5C(O)C3O)C3COC(=O)C23)OCO4)cc(OC)c1O (stereo not given) + Cc1[nH]c2ccc(F)cc2c1-c1nc2c3cccnc3c3ncccc3c2[nH]1
2. CCCS(=O)(=O)Nc1ccc(F)c(C(=O)c2c[nH]c3ncc(-c4ccc(Cl)cc4)cc23)c1F + CN(C)c1ccc(Nc2c3ccc(NC(=O)CCN4CCCC4)cc3nc3cc(NC(=O)CCN4CCCC4)ccc23)cc1

(A)
1. 92.2
2. 53.4
